This listing pairs compounds with measured growth inhibition.
- method.description: NCI Yeast Anticancer Drug Screen. Data for the sgs1 mgt1 strain (AID 161);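 note: 0% = growth of cultures given vehicle only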
- conditions: S. cerevisiae sgs1 mgt1 strain, at 50.0 µM, hits give high values
The panel holds about 79,000 compounds, 15% with a hit somewhere; the sample as a whole holds those more often.
// units = %; emit number, no label

Some solved cases for reference:
CCCNc1nc(N)[nH]c(=O)c1NC=O : -6.7
CC1=C2CC/C(C)=C/CCC3(C)OC3CC/C(C)=C/C2OC1=O (configuration not stated) : 13.3
O=C1C2CCSCN2C(=O)N1c1ccccc1 (configuration not stated) : -7.75
CCOC(=O)/C(C#N)=C\C1(C)CCC(C)=CO1 (configuration not stated) : -7.9

Query: growth inhibition for N#CCNC=O ?
Reply: -13.4

Query: growth inhibition for C=C(CC(=O)OC)C(=O)OC ?
Reply: 8.45

Query: growth inhibition for Cc1cc(=O)c2ccccc2n1CCCCCCCCCCn1c(C)cc(=O)c2ccccc21 ?
Reply: -17

Query: growth inhibition for COc1cc(NC=C2C(=O)OC(C)(C)OC2=O)c(OC)c(C)c1OC ?
Reply: -10.1

Query: growth inhibition for O=[N+]([O-])c1ccc(Oc2ccc(S(=O)(=O)O)cc2)cc1 ?
Reply: -4.35

Query: growth inhibition for COc1cc(NN=C(C#N)C#N)c(OC)cc1Cl ?
Reply: 48

Query: growth inhibition for O=C1C/C(=C\c2ccccc2O)C(=O)c2ccccc21 ?
Reply: 83.4

Query: growth inhibition for COc1ccc(CCNC(=O)C(Sc2ccccn2)c2ccccc2)cc1OC (configuration not stated) ?
Reply: 5.35

----------
This listing pairs compounds with measured growth inhibition.
- method.description: NCI Yeast Anticancer Drug Screen. Data for the bub3 strain (AID 167)
- conditions: S. cerevisiae bub3 mutant strain, at 50.0 µM, hits give high values
- Description: Growth inhibition of yeast strains with defined genetic alterations is measured as a screen for potential anti-cancer activity. Selected strains with alterations in DNA damage repair or cell cycle control were exposed to compounds and growth inhibition was measured relative to vehicle treated controls. The strain used in this assay is bub3
This is part of a sample that, as a whole, favours compounds with a hit. Of some 79,000 tested, about 15% had one in any assay.
// units = %; emit number, no label

Some solved cases for reference:
C/C(=N\NC(=O)CC(=O)Nc1ccccc1Cl)c1cc2cc(N=Nc3ccccc3Cl)ccc2oc1=O : -4.05
CCCN1CN(C(C(=O)N[C@@H]2C(=O)N3C(C(=O)O)=C(C)CSC23)c2ccc(O)cc2)CSC1=S (some centres not stated) : -23.6
CCOC(CO)OCC : 13.6
CN(C)CCNC(=O)c1cccc2c1Oc1cccc([N+](=O)[O-])c1O2 : -12.1
CCCCCCCCCCCCCCCCCC(CCCCCCCC)CCCCCCCC : 0.25

Query: growth inhibition for C=Cc1ccc(S(N)(=O)=O)cc1 ?
Reply: -12.7

Query: growth inhibition for CCOC(=O)NN1C(=O)C(=P(c2ccccc2)(c2ccccc2)c2ccccc2)C(C(=O)OC)=C1C ?
Reply: -6.65

Query: growth inhibition for CCCCCC(=O)OCCOC ?
Reply: -38.1

----------
- method.description: NCI Yeast Anticancer Drug Screen. Data for the cln2 rad14 strain (AID 165);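 note: 0% = growth equal to vehicle treated cultures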
- conditions: S. cerevisiae cln2 rad14 strain, at 50.0 µM
Compounds without any hit were thinned out: in the full panel of roughly 79,000, 15% have a hit. Active and inactive are the calls of the source. Rule as the data show it: active = growth inhibition above about 70%; inactive = the rest.
Your response should consist of one outcome taken from active, inactive

A selection of reference data follows.
Cc1cc2[nH]c3c(C#N)c4c(c(=O)n3c2cc1C)CCCC4 : inactive
CC=C=C(C)CN : inactive
CC(=O)N/N=C(\N)c1nc2c(n3nc(C)nc13)CCCC2 : inactive
C=C1C(=O)C23C(O)CC4C(C)(C)[C@@H](OC(C)=O)CCC4(C)[C@]2(O)CCC1[C@@H]3O (some centres undefined) : inactive
O=C(/C=C/c1ccccc1)Oc1ccccc1 : inactive

Query: Tell me the assay call for O=c1[nH]c2cc([N+](=O)[O-])ccc2c2ccc(Cl)cc12 please.
Reply: inactive

Query: Tell me the assay call for COc1ccc(C(=O)Oc2ccc(C)c(CC(Cl)(Cl)Cl)c2)cc1 please.
Reply: inactive

----------
- method.description: NCI Yeast Anticancer Drug Screen. Data for the sgs1 mgt1 strain (AID 161);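 note: 0% = growth of cultures given vehicle only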
- conditions: S. cerevisiae sgs1 mgt1 strain, at 50.0 µM, hits give high values
About 79,000 compounds went through this panel and 15% of them were active in at least one assay; those are over-represented in the sample as a whole.
parameter: growth inhibition (%)
// units = %; emit number, no label

O=C1NC(=S)SC1=C1CCCCC1 : 41.6
COc1cnnc2ccccc12 : 4.6
Cc1cccc(-c2c3ccccc3cc3ccccc23)c1 : 7.55

Query: growth inhibition for COC[C@@H](N=CN1CCc2cc(OC)c(OC)cc2C1)C(C)(C)C ?
Reply: -14.6

Query: growth inhibition for O=C(CC(c1ccccc1)C(Br)[N+](=O)[O-])c1ccccc1 (centres undefined) ?
Reply: 36.6

Query: growth inhibition for O=C1c2ccccc2-c2ccc(-n3c(=O)c4ccccc4c4ccccc4c3=O)cc21 ?
Reply: 29.8

Query: growth inhibition for COC(=O)C(=O)c1c2ccccc2n2ccc3c4ccccc4[nH]c3c12 ?
Reply: -5.75

Query: growth inhibition for O=C1OCC2=C1C(c1ccc3c(c1)OCO3)c1cc3c(cc1O2)OCO3 (centres undefined) ?
Reply: -39.2

Query: growth inhibition for CSc1ncc(C#N)c2nc(-c3ccccc3)nn12 ?
Reply: 3.35

Query: growth inhibition for COC(=O)NC1CC/C=C\CCC1I (centres undefined) ?
Reply: 8.1

Query: growth inhibition for CC(Cc1cccc2ccccc12)(C(=O)O)C(=O)O ?
Reply: 11.5

----------
- method.description: NCI Yeast Anticancer Drug Screen. Data for the cln2 rad14 strain (AID 165);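 note: 0% = growth equal to vehicle treated cultures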
- conditions: S. cerevisiae cln2 rad14 strain, at 50.0 µM
The panel holds about 79,000 compounds, 15% with a hit somewhere; the sample as a whole holds those more often. Active and inactive are the calls of the source. Rule as the data show it: active = growth inhibition above about 70%; inactive = the rest.
Your response should consist of one outcome taken from 1 = active, -1 = inactive

CC(=O)OCC(OC(C)=O)C1OC2OC(C)(C)OC2C1OS(C)(=O)=O (stereo not given) : -1

Query: Tell me the assay call for CS(=O)(=O)N1COC(=O)[C@@H]1c1ccccc1 please.
Reply: -1

Query: Tell me the assay call for C=C(Br)CNC(=O)Nc1ccc(Cl)c(Cl)c1 please.
Reply: -1

----------
- method.description: NCI Yeast Anticancer Drug Screen. Data for the sgs1 mgt1 strain (AID 161);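 note: 0% = growth of cultures given vehicle only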
- conditions: S. cerevisiae sgs1 mgt1 strain, at 50.0 µM, hits give high values
Compounds without any hit were thinned out: in the full panel of roughly 79,000, 15% have a hit.
This listing pairs molecules with measured growth inhibition.
// units = %; emit number, no label

Some solved cases for reference:
C=C(C)c1nc(C#N)c(N)o1 : -13.4
CCCCCCCC(C(=O)O)C(=O)O : 10.3

Query: growth inhibition for O=C1c2ccccc2C(=O)N1CCc1ccccc1 ?
Reply: -6.9

Query: growth inhibition for CC12CCC3c4ccc(OC(=O)c5ccccc5)cc4CCC3C1CC(O)C2 (configuration not stated) ?
Reply: 50.2

Query: growth inhibition for COc1ccc(CCCCl)c(C2=NCCc3cc(OC)c(OC)cc32)c1 ?
Reply: -37.8

Query: growth inhibition for CC(=O)NNc1nc(C)c(C(/C=C/c2ccc(NC(C)=O)cc2)=N/NS(=O)(=O)c2ccc(C)cc2)s1 ?
Reply: 3.15

Query: growth inhibition for CC(=O)Nc1cccc2c(OC(C)=O)cccc12 ?
Reply: -19.7

Query: growth inhibition for Cn1c[n+](-c2ccccc2)c([S-])n1 ?
Reply: 5.15

Query: growth inhibition for O=C1NC2(O)C(=O)c3ccccc3C2(O)N1 (configuration not stated) ?
Reply: -27.9

Query: growth inhibition for CC(O)C(C)(C)[N+](=O)[O-] (configuration not stated) ?
Reply: -7

Query: growth inhibition for NNc1nnnc2ccccc12 ?
Reply: -0.8

Query: growth inhibition for C=CC(C)(C)c1c2c(c(O)c3c(=O)c4ccc(O)c(O)c4oc13)C=CC(C)(C)O2 ?
Reply: 3.35

----------
- method.description: NCI Yeast Anticancer Drug Screen. Data for the sgs1 mgt1 strain (AID 161);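 note: 0% = growth of cultures given vehicle only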
- conditions: S. cerevisiae sgs1 mgt1 strain, at 50.0 µM, hits give high values
This is part of a sample that, as a whole, favours compounds with a hit. Of some 79,000 tested, about 15% had one in any assay.
parameter: growth inhibition (%)
// units = %; emit number, no label

Some solved cases for reference:
O=[N+]([O-])c1cc([N+](=O)[O-])c(C(Cl)C(Cl)c2ccccc2)cc1C(Cl)C(Cl)c1ccccc1 (stereo not drawn) : -18.9
O=c1c2cc(S(=O)(=O)Nc3ccc(Cl)cc3Cl)ccc2ncn1NS(=O)(=O)c1cccc2ccccc12 : 28.6
Cc1ccc(NC(=O)C2c3ccccc3-c3ccccc32)cc1 : 16.9
COc1ccc(C(=O)c2ccccc2C)cc1OC : -1.15
O=C1C2CCC(C2)C1CN1CCOCC1 (stereo not drawn) : -1.25
N/C(CC/C(N)=N\O)=N\O : -11.2
NC(=N\C1=NCCN1)/C(N)=N/C1=NCCN1 : -1.35
CCCOc1ccc(C(=O)O)cc1 : 6.3

Query: growth inhibition for NNC(=O)N/N=C/c1cccc(O)c1 ?
Reply: -21.4
